Reference for the values: ChEMBL document CHEMBL3046818

- study-system: Photosystem II protein D1 (Spinacia oleracea, UniProt P69560)
- experimental-details: Inhibition of photosystem II in Spinacia oleracea (spinach) chloroplasts assessed as reduction of photosynthetic electron transport
In this section, each of the compounds is paired with its reported log10(IC50).
property-name: log10(IC50) (log10 of the value in µM)

{"columns": ["chemical-structure", "study-system", "log10(IC50)"],
 "data": [
  ["CCCCNC(=O)Oc1ccc(Cl)cc1C(=O)Nc1cccc(Cl)c1", "Photosystem II protein D1 (Spinacia oleracea, UniProt P69560)", 1.13],
  ["CCCCCCNC(=O)Oc1ccc(Cl)cc1C(=O)Nc1cccc(Cl)c1", "Photosystem II protein D1 (Spinacia oleracea, UniProt P69560)", 0.72],
  ["CCNC(=O)Oc1ccc(Cl)cc1C(=O)Nc1cccc(Cl)c1", "Photosystem II protein D1 (Spinacia oleracea, UniProt P69560)", 1.19],
  ["CN(C)C(=O)Nc1ccc(Cl)c(Cl)c1", "Photosystem II protein D1 (Spinacia oleracea, UniProt P69560)", 0.28],
  ["CCCCCCCNC(=O)Oc1ccc(Cl)cc1C(=O)Nc1ccc(Cl)cc1", "Photosystem II protein D1 (Spinacia oleracea, UniProt P69560)", 0.85],
  ["CCCCCNC(=O)Oc1ccc(Cl)cc1C(=O)Nc1cccc(Cl)c1", "Photosystem II protein D1 (Spinacia oleracea, UniProt P69560)", 0.73],
  ["CCCCCCCCCNC(=O)Oc1ccc(Cl)cc1C(=O)Nc1ccc(Cl)c(Cl)c1", "Photosystem II protein D1 (Spinacia oleracea, UniProt P69560)", 2.70],
  ["CCNC(=O)Oc1ccc(Cl)cc1C(=O)Nc1ccc(Cl)cc1", "Photosystem II protein D1 (Spinacia oleracea, UniProt P69560)", 0.99],
  ["CCCCCCCNC(=O)Oc1ccc(Cl)cc1C(=O)Nc1cccc(Cl)c1", "Photosystem II protein D1 (Spinacia oleracea, UniProt P69560)", 0.69],
  ["CCCCCNC(=O)Oc1ccc(Cl)cc1C(=O)Nc1ccc(Cl)cc1", "Photosystem II protein D1 (Spinacia oleracea, UniProt P69560)", 0.80],
  ["CCNC(=O)Oc1ccc(Cl)cc1C(=O)Nc1ccc(Cl)c(Cl)c1", "Photosystem II protein D1 (Spinacia oleracea, UniProt P69560)", 1.92],
  ["CCCCCCCCCNC(=O)Oc1ccc(Cl)cc1C(=O)Nc1ccc(Cl)cc1", "Photosystem II protein D1 (Spinacia oleracea, UniProt P69560)", 0.90],
  ["CCCCCCNC(=O)Oc1ccc(Cl)cc1C(=O)Nc1ccc(Cl)c(Cl)c1", "Photosystem II protein D1 (Spinacia oleracea, UniProt P69560)", 2.16],
  ["CCCCCCCCCCNC(=O)Oc1ccc(Cl)cc1C(=O)Nc1ccc(Cl)cc1", "Photosystem II protein D1 (Spinacia oleracea, UniProt P69560)", 0.92],
  ["CCCCCCCCNC(=O)Oc1ccc(Cl)cc1C(=O)Nc1cccc(Cl)c1", "Photosystem II protein D1 (Spinacia oleracea, UniProt P69560)", 1.00],
  ["CCCCCCCCCCNC(=O)Oc1ccc(Cl)cc1C(=O)Nc1cccc(Cl)c1", "Photosystem II protein D1 (Spinacia oleracea, UniProt P69560)", 1.20],
  ["CCCCCCNC(=O)Oc1ccc(Cl)cc1C(=O)Nc1ccc(Cl)cc1", "Photosystem II protein D1 (Spinacia oleracea, UniProt P69560)", 0.80],
  ["CCCCCCCCNC(=O)Oc1ccc(Cl)cc1C(=O)Nc1ccc(Cl)c(Cl)c1", "Photosystem II protein D1 (Spinacia oleracea, UniProt P69560)", 2.64],
  ["CCCCCCCCCCCNC(=O)Oc1ccc(Cl)cc1C(=O)Nc1ccc(Cl)cc1", "Photosystem II protein D1 (Spinacia oleracea, UniProt P69560)", 1.02],
  ["CCCCCNC(=O)Oc1ccc(Cl)cc1C(=O)Nc1ccc(Cl)c(Cl)c1", "Photosystem II protein D1 (Spinacia oleracea, UniProt P69560)", 2.00],
  ["CCCCCCCCCCCNC(=O)Oc1ccc(Cl)cc1C(=O)Nc1cccc(Cl)c1", "Photosystem II protein D1 (Spinacia oleracea, UniProt P69560)", 1.26],
  ["CCCCCCCNC(=O)Oc1ccc(Cl)cc1C(=O)Nc1ccc(Cl)c(Cl)c1", "Photosystem II protein D1 (Spinacia oleracea, UniProt P69560)", 2.23],
  ["CCCCCCCCCNC(=O)Oc1ccc(Cl)cc1C(=O)Nc1cccc(Cl)c1", "Photosystem II protein D1 (Spinacia oleracea, UniProt P69560)", 1.19],
  ["CCCCCCCCNC(=O)Oc1ccc(Cl)cc1C(=O)Nc1ccc(Cl)cc1", "Photosystem II protein D1 (Spinacia oleracea, UniProt P69560)", 0.87]
]}

* * *

In this section, each of the compounds is paired with its reported log K.
- experimental-details: Lipophilicity, log K of the compound
- Assay type: physicochemical
- protocol-conditions: RP-HPLC capacity factor, C18 column, methanol mobile phase

{"columns": ["chemical-structure", "log K"],
 "data": [
  ["CCCCCCCNC(=O)Oc1ccc(Cl)cc1C(=O)Nc1cccc(Cl)c1", 0.7772],
  ["CCCCCCNC(=O)Oc1ccc(Cl)cc1C(=O)Nc1ccc(Cl)c(Cl)c1", 1.0611],
  ["CCCCCCNC(=O)Oc1ccc(Cl)cc1C(=O)Nc1cccc(Cl)c1", 0.7758],
  ["CCCCCCCNC(=O)Oc1ccc(Cl)cc1C(=O)Nc1ccc(Cl)c(Cl)c1", 1.0667],
  ["CCCCCCCCCCNC(=O)Oc1ccc(Cl)cc1C(=O)Nc1ccc(Cl)cc1", 0.7942]
]}

* * *

In this section, each of the molecules is paired with its reported log K.
- experimental-details: Lipophilicity, log K of the compound
- Format: physicochemical
- protocol-conditions: RP-HPLC capacity factor, C18 column, methanol mobile phase

{"columns": ["chemical-structure", "log K"],
 "data": [
  ["CCCCCCCCCCNC(=O)Oc1ccc(Cl)cc1C(=O)Nc1ccc(Cl)c(Cl)c1", 1.0894],
  ["CCCCCNC(=O)Oc1ccc(Cl)cc1C(=O)Nc1cccc(Cl)c1", 0.7732],
  ["CCNC(=O)Oc1ccc(Cl)cc1C(=O)Nc1ccc(Cl)cc1", 0.7695],
  ["CCCCCCCCCNC(=O)Oc1ccc(Cl)cc1C(=O)Nc1cccc(Cl)c1", 0.7837],
  ["CCCCCCCCNC(=O)Oc1ccc(Cl)cc1C(=O)Nc1ccc(Cl)cc1", 0.7899],
  ["CCNC(=O)Oc1ccc(Cl)cc1C(=O)Nc1cccc(Cl)c1", 0.7523]
]}

* * *

- experimental-details: Half life in aqueous buffer solutions at pH 7.4 by HPLC analysis
- Type: ADME
- protocol-conditions: aqueous buffer solution

{"columns": ["chemical-structure", "half-life / h"],
 "data": [
  ["CCCCCCCNC(=O)Oc1ccc(Cl)cc1C(=O)Nc1ccc(Cl)cc1", 43],
  ["CCCCCCCCNC(=O)Oc1ccc(Cl)cc1C(=O)Nc1cccc(Cl)c1", 43],
  ["CCNC(=O)Oc1ccc(Cl)cc1C(=O)Nc1ccc(Cl)cc1", 43],
  ["CCCCCCCCCNC(=O)Oc1ccc(Cl)cc1C(=O)Nc1cccc(Cl)c1", 43],
  ["CCCCCCNC(=O)Oc1ccc(Cl)cc1C(=O)Nc1ccc(Cl)cc1", 43],
  ["CCNC(=O)Oc1ccc(Cl)cc1C(=O)Nc1cccc(Cl)c1", 43]
]}

* * *

- experimental-details: Chemical stability of the compound in aqueous buffer solutions at acidic pH by HPLC analysis
- Format: physicochemical

{"columns": ["chemical-structure", "Stability"],
 "data": [
  ["CCCCCCNC(=O)Oc1ccc(Cl)cc1C(=O)Nc1ccc(Cl)cc1", "Stable"],
  ["CCCCCCCCCCNC(=O)Oc1ccc(Cl)cc1C(=O)Nc1cccc(Cl)c1", "Stable"],
  ["CCCCCCCCCCCNC(=O)Oc1ccc(Cl)cc1C(=O)Nc1cccc(Cl)c1", "Stable"]
]}

* * *

- experimental-details: Lipophilicity, log K of the compound
- Format: physicochemical
- protocol-conditions: RP-HPLC capacity factor, C18 column, methanol mobile phase
In this section, each of the compounds is paired with its reported log K.

{"columns": ["compound", "log K"],
 "data": [
  ["CN(C)C(=O)Nc1ccc(Cl)c(Cl)c1 [DCMU]", 0.47],
  ["CCCCCCCNC(=O)Oc1ccc(Cl)cc1C(=O)Nc1ccc(Cl)cc1", 0.7872],
  ["CCCCCCCCCNC(=O)Oc1ccc(Cl)cc1C(=O)Nc1ccc(Cl)c(Cl)c1", 1.088],
  ["CCCCCCCCCCCNC(=O)Oc1ccc(Cl)cc1C(=O)Nc1ccc(Cl)c(Cl)c1", 1.0903],
  ["CCCCCCNC(=O)Oc1ccc(Cl)cc1C(=O)Nc1ccc(Cl)cc1", 0.7859]
]}
